biological target: Protein cereblon/Tyrosine-protein kinase BTK (Homo sapiens, UniProt Q06187+Q96SW2); test: PROTAC activity at BTK/CRBN protein protein interaction in human Ramos cell assessed as degradation of BTK incubated for 17 hrs measured by Western blot analysis relative to control; type: cell-based
Sequence (Q06187 2-659 limits assumed): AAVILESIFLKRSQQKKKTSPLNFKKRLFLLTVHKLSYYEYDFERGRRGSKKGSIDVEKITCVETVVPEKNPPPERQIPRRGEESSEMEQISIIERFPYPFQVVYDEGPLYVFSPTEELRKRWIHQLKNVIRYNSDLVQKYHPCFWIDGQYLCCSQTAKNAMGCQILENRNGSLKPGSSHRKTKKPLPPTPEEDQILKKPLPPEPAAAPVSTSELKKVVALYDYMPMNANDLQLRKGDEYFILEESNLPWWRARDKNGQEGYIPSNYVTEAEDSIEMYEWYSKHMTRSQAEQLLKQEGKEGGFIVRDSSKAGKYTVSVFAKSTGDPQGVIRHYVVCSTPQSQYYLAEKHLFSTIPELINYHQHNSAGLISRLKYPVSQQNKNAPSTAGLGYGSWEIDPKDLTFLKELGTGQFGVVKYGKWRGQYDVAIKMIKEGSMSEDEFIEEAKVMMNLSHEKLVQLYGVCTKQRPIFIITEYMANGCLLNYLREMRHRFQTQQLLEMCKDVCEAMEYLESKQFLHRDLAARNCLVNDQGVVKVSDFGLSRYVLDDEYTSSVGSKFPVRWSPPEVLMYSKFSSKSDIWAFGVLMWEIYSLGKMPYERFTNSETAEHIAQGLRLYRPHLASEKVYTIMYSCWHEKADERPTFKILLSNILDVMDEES
Sequence (Q96SW2 whole entry partner): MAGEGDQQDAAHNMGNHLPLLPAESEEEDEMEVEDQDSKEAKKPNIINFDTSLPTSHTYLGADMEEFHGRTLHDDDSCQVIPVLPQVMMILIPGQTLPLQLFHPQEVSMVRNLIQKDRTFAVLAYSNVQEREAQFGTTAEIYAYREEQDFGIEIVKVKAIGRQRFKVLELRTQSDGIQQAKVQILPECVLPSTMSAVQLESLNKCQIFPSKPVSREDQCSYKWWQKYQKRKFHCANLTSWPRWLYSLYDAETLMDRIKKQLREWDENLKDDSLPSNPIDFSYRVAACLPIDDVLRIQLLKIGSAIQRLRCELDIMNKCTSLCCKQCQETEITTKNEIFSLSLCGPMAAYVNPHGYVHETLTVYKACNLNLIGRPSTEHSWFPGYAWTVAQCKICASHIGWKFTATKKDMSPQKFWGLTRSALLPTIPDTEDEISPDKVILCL
Each entry below lists one item and its recorded Emax value.

| Molecule | Emax (%) |
| --- | --- |
| Cn1cc(-c2ccnc(N3CCn4c(cc5c4CC(C)(C)C5)C3=O)c2CO)cc(Nc2ccc(N3CCN(CCCCCCOCCOCC(=O)Nc4cccc5c4C(=O)N(C4CCC(=O)NC4=O)C5=O)CC3)cn2)c1=O (configuration not stated) | 97.2 |
| C[C@H]1CN(C(=O)CCOCCOCCNc2cccc3c2C(=O)N(C2CCC(=O)NC2=O)C3=O)CCN1c1ccc(Nc2cc(-c3ccnc(N4CCn5c(cc6c5CC(C)(C)C6)C4=O)c3CO)cn(C)c2=O)nc1 (some centres not stated) | 96.1 |
| C[C@H]1CN(C(=O)CNc2cccc3c2C(=O)N(C2CCC(=O)NC2=O)C3=O)CCN1c1ccc(Nc2cc(-c3ccnc(N4CCn5c(cc6c5CC(C)(C)C6)C4=O)c3CO)cn(C)c2=O)nc1 (some centres not stated) | 97.1 |
| C[C@H]1CN(C(=O)CCCCCCCCCCCNc2cccc3c2C(=O)N(C2CCC(=O)NC2=O)C3=O)CCN1c1ccc(Nc2cc(-c3ccnc(N4CCn5c(cc6c5CC(C)(C)C6)C4=O)c3CO)cn(C)c2=O)nc1 (some centres not stated) | 89 |
| C[C@H]1CN(C(=O)CCCNc2cccc3c2C(=O)N(C2CCC(=O)NC2=O)C3=O)CCN1c1ccc(Nc2cc(-c3ccnc(N4CCn5c(cc6c5CC(C)(C)C6)C4=O)c3CO)cn(C)c2=O)nc1 (some centres not stated) | 95.7 |
| C[C@H]1CN(C(=O)c2cccc3c2C(=O)N(C2CCC(=O)NC2=O)C3=O)CCN1c1ccc(Nc2cc(-c3ccnc(N4CCn5c(cc6c5CC(C)(C)C6)C4=O)c3CO)cn(C)c2=O)nc1 (some centres not stated) | 30.1 |
| Cn1cc(-c2ccnc(N3CCn4c(cc5c4CC(C)(C)C5)C3=O)c2CO)cc(Nc2ccc(N3CCN(C(=O)CCCCCCNc4cccc5c4C(=O)N(C4CCC(=O)NC4=O)C5=O)CC3)cn2)c1=O (configuration not stated) | 96.9 |

====

target: Protein cereblon/Tyrosine-protein kinase BTK (Homo sapiens, UniProt Q06187+Q96SW2); assay: PROTAC activity at BTK/CRBN protein protein interaction in human Ramos cell assessed as degradation of BTK incubated for 17 hrs measured by Western blot analysis relative to control; type: cell-based
Here the recorded Emax is given for each entry.

| Compound | Emax [%] |
| --- | --- |
| C[C@H]1CN(C(=O)CCCCCCOCCOCC(=O)Nc2cccc3c2C(=O)N(C2CCC(=O)NC2=O)C3=O)CCN1c1ccc(Nc2cc(-c3ccnc(N4CCn5c(cc6c5CC(C)(C)C6)C4=O)c3CO)cn(C)c2=O)nc1 (stereo not given in full) | 97.1 |
| C[C@H]1CN(C(=O)CNc2ccc3c(c2)C(=O)N(C2CCC(=O)NC2=O)C3=O)CCN1c1ccc(Nc2cc(-c3ccnc(N4CCn5c(cc6c5CC(C)(C)C6)C4=O)c3CO)cn(C)c2=O)nc1 (stereo not given in full) | 97.3 |
| C[C@H]1CN(C(=O)CCCCCCCCCNc2cccc3c2C(=O)N(C2CCC(=O)NC2=O)C3=O)CCN1c1ccc(Nc2cc(-c3ccnc(N4CCn5c(cc6c5CC(C)(C)C6)C4=O)c3CO)cn(C)c2=O)nc1 (stereo not given in full) | 94 |
| C[C@H]1CN(CCCCCCOCCOCC(=O)Nc2cccc3c2C(=O)N(C2CCC(=O)NC2=O)C3=O)CCN1c1ccc(Nc2cc(-c3ccnc(N4CCn5c(cc6c5CC(C)(C)C6)C4=O)c3CO)cn(C)c2=O)nc1 (stereo not given in full) | 95.6 |
| Cn1cc(-c2ccnc(N3CCn4c(cc5c4CC(C)(C)C5)C3=O)c2CO)cc(Nc2ccc(N3CCN(C(=O)CCCCCCOCCOCC(=O)Nc4cccc5c4C(=O)N(C4CCC(=O)NC4=O)C5=O)CC3)cn2)c1=O (stereo not given) | 98.3 |
